This collection of values is drawn from ChEMBL document CHEMBL3797181.

test.protocol: Tmax in NOD/SCID mouse plasma at 30 mg/kg, ip
Type: ADME, organism-based
endpoint: Tmax (min)
Report only the number, with the unit min understood.

-- ask Return reported Tmax. Input compound: "CN1CCN(c2ccc(-c3cccc(CN4CCOCC4)c3)cc2NC(=O)c2c[nH]c(=O)cc2C(F)(F)F)CC1"
-- reply 15

----------
test.protocol: Metabolic stability in mouse liver microsomes assessed as parent compound remaining after 0.5 hrs
Assay type: ADME
condition.label: read-out: Stability
endpoint: remaining at 0.5 h (%)
Expressed in %, but write only the number.

-- ask Assign remaining at 0.5 h to the following record: "CN1CCN(c2ccc(-c3cccc(CN4CCOCC4)c3)cc2NC(=O)c2c[nH]c(=O)cc2C(F)(F)F)CC1"
-- reply 85

----------
test.protocol: AUC in NOD/SCID mouse plasma at 3 mg/kg, iv up to 24 hrs
Format: ADME, organism-based
Design: time < 24 hr, dose 3 mg/kg, route intravenous
endpoint: AUC at 24 h (ng·h/mL)
// note: answer is a bare numeric in ng·h/mL

-- ask State its AUC at 24 h for this compound: "CN1CCN(c2ccc(-c3cccc(CN4CCOCC4)c3)cc2NC(=O)c2c[nH]c(=O)cc2C(F)(F)F)CC1"
-- reply 1010

----------
test.protocol: Half life in NOD/SCID mouse plasma at 3 mg/kg, iv
Format: ADME, organism-based
endpoint: half-life (h)
Number only, in h; omit the unit.

-- ask Identify measured half-life corresponding to "CN1CCN(c2ccc(-c3cccc(CN4CCOCC4)c3)cc2NC(=O)c2c[nH]c(=O)cc2C(F)(F)F)CC1"
-- reply 4.78

----------
test.protocol: Cmax in NOD/SCID mouse plasma at 30 mg/kg, ip up to 24 hrs
Type: ADME, organism-based
Set-up: dose 30 mg/kg, route intraperitoneal
endpoint: Cmax (µM)
Your answer should be a plain number; it is taken to be in µM.

-- ask Provide only the value of recorded Cmax for "CN1CCN(c2ccc(-c3cccc(CN4CCOCC4)c3)cc2NC(=O)c2c[nH]c(=O)cc2C(F)(F)F)CC1"
-- reply 6.85

----------
test.protocol: Clearance in NOD/SCID mouse plasma at 3 mg/kg, iv up to 24 hrs
Assay type: ADME, organism-based
endpoint: clearance (mL/min/kg)
Write the number in mL/min/kg without appending the unit.

-- ask Give reported clearance value for "CN1CCN(c2ccc(-c3cccc(CN4CCOCC4)c3)cc2NC(=O)c2c[nH]c(=O)cc2C(F)(F)F)CC1"
-- reply 53.9

----------
test.protocol: Tmax in NOD/SCID mouse plasma at 3 mg/kg, iv
Type: ADME, organism-based
endpoint: Tmax (min)
Express your answer in min, writing the number without its unit.

-- ask Give the reported Tmax for this molecule. "CN1CCN(c2ccc(-c3cccc(CN4CCOCC4)c3)cc2NC(=O)c2c[nH]c(=O)cc2C(F)(F)F)CC1"
-- reply 5

----------
test.protocol: Cmax in NOD/SCID mouse plasma at 3 mg/kg, iv up to 24 hrs
Format: ADME, organism-based
Set-up: dose 3 mg/kg, route intravenous
endpoint: Cmax
Field note: include the unit after the figure.

-- ask Return the recorded Cmax value; entry: "CN1CCN(c2ccc(-c3cccc(CN4CCOCC4)c3)cc2NC(=O)c2c[nH]c(=O)cc2C(F)(F)F)CC1"
-- reply 1260 nM
